Data origin: patent US20230263822A1

Recorded measurements of MCHC, one per entry
EXPERIMENTAL_PROTOCOL: Hematology assays in cynomolgus monkeys (Example 45)
Assay type: in vivo
CONDITIONS: day −5; escalating dose regimen
Enter your answer as a number in g/dL; do not include the unit.

// worked examples, MCHC included
| SUBSTANCE | ENDPOINT_RESULT |
| --- | --- |
| ISIS 417002: MOE gapmer, nucleobases 1275 to 1318 of SEQ ID NO: 1 (Table 8) (antisense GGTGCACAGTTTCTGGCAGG; MOE gapmer, wing and gap sizes not given here) | 30 |
| ISIS 416838: MOE gapmer, nucleobases 1018 to 1042 of SEQ ID NO: 1 (Table 6) (antisense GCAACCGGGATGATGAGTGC; MOE gapmer, wing and gap sizes not given here) | 31 |
| ISIS 416864: MOE gapmer, nucleobases 1275 to 1318 of SEQ ID NO: 1 (Table 8) (antisense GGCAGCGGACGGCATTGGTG; MOE gapmer, wing and gap sizes not given here) | 29 |
| ISIS 416850: MOE gapmer, nucleobases 1275 to 1318 of SEQ ID NO: 1 (Table 8) (antisense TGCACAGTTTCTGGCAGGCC; MOE gapmer, wing and gap sizes not given here) | 30 |

Proceed to the following item.
-- ask Tell me the measured MCHC of ISIS 416858: MOE gapmer, nucleobases 1275 to 1318 of SEQ ID NO: 1 (Table 8) (antisense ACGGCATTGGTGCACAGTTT; MOE gapmer, wing and gap sizes not given here) , please.
-- reply 31

====

EXPERIMENTAL_PROTOCOL: Hematology assays in cynomolgus monkeys (Example 45)
Format: in vivo
CONDITIONS: day 85
REPORTED_PROPERTY: lymphocytes (%)
Enter your answer as a number in %; do not include the unit.

| SUBSTANCE | REPORTED_PROPERTY | ENDPOINT_RESULT |
| --- | --- | --- |
| ISIS 417002: MOE gapmer, nucleobases 1275 to 1318 of SEQ ID NO: 1 (Table 8) (antisense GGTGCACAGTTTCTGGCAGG; MOE gapmer, wing and gap sizes not given here) | lymphocytes | 56 |
| ISIS 416864: MOE gapmer, nucleobases 1275 to 1318 of SEQ ID NO: 1 (Table 8) (antisense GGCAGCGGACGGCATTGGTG; MOE gapmer, wing and gap sizes not given here) | lymphocytes | 54 |

Proceed to the following item.
-- ask Tell me the measured lymphocytes of ISIS 416850: MOE gapmer, nucleobases 1275 to 1318 of SEQ ID NO: 1 (Table 8) (antisense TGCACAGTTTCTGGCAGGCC; MOE gapmer, wing and gap sizes not given here) , please.
-- reply 34

====

System: IL-1β, IL-6, IFN-γ, TNF-α, IL-8, MIP-1α, MCP-1, MIP-1β, RANTES
EXPERIMENTAL_PROTOCOL: Cytokine and chemokine assays in cynomolgus monkeys (Example 46)
Assay type: in vivo
CONDITIONS: day-14 (before start of treatment)
Strand notation (5' to 3'): a small letter for the sugar, then the base; units joined by * are phosphorothioate-linked, units joined directly phosphodiester-linked; [ ] holds rarer units or linkages, { } end groups; capitals alone tell only the bases. e = 2'-O-(2-methoxyethyl) (MOE); [5mC] = 5-methylcytosine; d = 2'-deoxy (DNA)
Recorded measurements of TNF-α level, one per entry
Enter your answer as a number in pg/mL; do not include the unit.

// worked examples, TNF-α level included
| SUBSTANCE | ENDPOINT_RESULT |
| --- | --- |
| ISIS 449709: 3-8-3, 4-8-4, 2-10-2, 3-10-3 or 4-10-4 MOE microwalk gapmer (Table 46) (antisense eG*e[5mC]*eA*e[5mC]*dA*dG*dT*dT*dT*d[5mC]*dT*dG*dG*d[5mC]*eA*eG*eG*e[5mC]) | 9 |
| ISIS 449710: 3-8-3, 4-8-4, 2-10-2, 3-10-3 or 4-10-4 MOE microwalk gapmer (Table 46) (antisense e[5mC]*eA*e[5mC]*dA*dG*dT*dT*dT*d[5mC]*dT*dG*dG*d[5mC]*eA*eG*eG) | 72 |
| ISIS 449708: 3-8-3, 4-8-4, 2-10-2, 3-10-3 or 4-10-4 MOE microwalk gapmer (Table 46) (antisense eA*e[5mC]*eA*dG*dT*dT*dT*d[5mC]*dT*dG*dG*e[5mC]*eA*eG) | 12 |

-- ask Tell me the measured TNF-α level of ISIS 416850: MOE gapmer, nucleobases 1275 to 1318 of SEQ ID NO: 1 (Table 8) (antisense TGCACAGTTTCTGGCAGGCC; MOE gapmer, wing and gap sizes not given here) , please.
-- reply 4

====

Tested on: fibrinogen
EXPERIMENTAL_PROTOCOL: Fibrinogen assay (Example 45)
Assay type: in vivo, cynomolgus monkeys
CONDITIONS: plasma; day 71; escalating dose regimen
REPORTED_PROPERTY: fibrinogen levels (mg/dL)
Enter your answer as a number in mg/dL; do not include the unit.

// worked examples, fibrinogen levels included
| SUBSTANCE | fibrinogen levels (mg/dL) |
| --- | --- |
| ISIS 416858: MOE gapmer, nucleobases 1275 to 1318 of SEQ ID NO: 1 (Table 8) (antisense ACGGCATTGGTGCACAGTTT; MOE gapmer, wing and gap sizes not given here) | 239 |
| ISIS 416850: MOE gapmer, nucleobases 1275 to 1318 of SEQ ID NO: 1 (Table 8) (antisense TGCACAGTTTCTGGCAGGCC; MOE gapmer, wing and gap sizes not given here) | 178 |
| ISIS 416838: MOE gapmer, nucleobases 1018 to 1042 of SEQ ID NO: 1 (Table 6) (antisense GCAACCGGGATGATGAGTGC; MOE gapmer, wing and gap sizes not given here) | 199 |
| ISIS 416864: MOE gapmer, nucleobases 1275 to 1318 of SEQ ID NO: 1 (Table 8) (antisense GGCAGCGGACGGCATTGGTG; MOE gapmer, wing and gap sizes not given here) | 245 |

-- ask Tell me the measured fibrinogen levels of ISIS 417002: MOE gapmer, nucleobases 1275 to 1318 of SEQ ID NO: 1 (Table 8) (antisense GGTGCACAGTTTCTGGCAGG; MOE gapmer, wing and gap sizes not given here) , please.
-- reply 228

====

Recorded measurements of Percent inhibition of human Factor 11 mRNA levels, one per entry
Tested on: human Factor 11 mRNA
EXPERIMENTAL_PROTOCOL: Antisense inhibition of human Factor 11 in HepG2 cells, electroporation, 8,000 nM (Example 30)
Type: cell-based
CONDITIONS: electroporation, 8,000 nM antisense oligonucleotide
Strand notation (5' to 3'): a small letter for the sugar, then the base; units joined by * are phosphorothioate-linked, units joined directly phosphodiester-linked; [ ] holds rarer units or linkages, { } end groups; capitals alone tell only the bases. e = 2'-O-(2-methoxyethyl) (MOE); [5mC] = 5-methylcytosine; d = 2'-deoxy (DNA)
Enter your answer as a number in %; do not include the unit.

| SUBSTANCE | SCALE_UNIT | ENDPOINT_RESULT |
| --- | --- | --- |
| 445542 (antisense eT*eG*eG*e[5mC]*eA*dG*d[5mC]*dG*dG*dA*d[5mC]*dG*dG*e[5mC]*eA*eT*eT*eG) [compound 445542] | % | 83 |
| 445539 (antisense e[5mC]*eA*eG*e[5mC]*eG*dG*dA*d[5mC]*dG*dG*d[5mC]*dA*dT*eT*eG*eG*eT*eG) [compound 445539] | % | 79 |
| 445533 (antisense eA*e[5mC]*eG*eG*e[5mC]*dA*dT*dT*dG*dG*dT*dG*d[5mC]*eA*e[5mC]*eA*eG*eT) [compound 445533] | % | 87 |
| 445534 (antisense eG*eA*e[5mC]*eG*eG*d[5mC]*dA*dT*dT*dG*dG*dT*dG*e[5mC]*eA*e[5mC]*eA*eG) [compound 445534] | % | 82 |
| 416855 (antisense e[5mC]*eA*eT*eT*eG*dG*dT*dG*d[5mC]*dA*d[5mC]*dA*dG*dT*dT*eT*e[5mC]*eT*eG*eG) [compound 416855] | % | 85 |
| 445529 (antisense e[5mC]*eA*eT*eT*eG*dG*dT*dG*d[5mC]*dA*d[5mC]*dA*dG*eT*eT*eT*e[5mC]*eT) [compound 445529] | % | 85 |
| 416861 (antisense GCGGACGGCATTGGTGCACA; 5-10-5 gapmer, further chemistry not given here) [compound 416861] | % | 90 |
| 412225 (antisense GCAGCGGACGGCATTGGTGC; 5-10-5 MOE gapmer, further chemistry not given here) [compound 412225] | % | 86 |
| 445495 (antisense eG*e[5mC]*eA*e[5mC]*eA*eG*dT*dT*dT*d[5mC]*dT*dG*dG*d[5mC]*eA*eG*eG*e[5mC]*e[5mC]*eT) [compound 445495] | % | 89 |
| 416863 (antisense CAGCGGACGGCATTGGTGCA; 5-10-5 gapmer, further chemistry not given here) [compound 416863] | % | 86 |

-- ask Tell me the measured Percent inhibition of human Factor 11 mRNA levels of 416862 (antisense eA*eG*e[5mC]*eG*eG*dA*d[5mC]*dG*dG*d[5mC]*dA*dT*dT*dG*dG*eT*eG*e[5mC]*eA*e[5mC]) [compound 416862] , please.
-- reply 89

-- ask Tell me the measured Percent inhibition of human Factor 11 mRNA levels of 445512 (antisense e[5mC]*eA*eG*e[5mC]*eG*eG*dA*d[5mC]*dG*dG*d[5mC]*dA*dT*dT*eG*eG*eT*eG*e[5mC]*eA) [compound 445512] , please.
-- reply 79
